- System: HCC-2998 colon
- experimental.protocol: NCI tumour cell line growth inhibition, 48 h; in the data active means GI50 below about 0.43 µM; inactive means the rest
Where a SMILES comes first, the peptide text is derived from it. [ ]: non-standard residue; d: D form. The star is where a group is joined. Dolaproine = CO[C@@H]([C@@H]1CCCN1)[C@@H](C)C(=O)O; Dil = CC[C@H](C)[C@H](NC)[C@@H](CC(=O)O)OC; X2 = C[C@@H](N*)[C@@H](O)c1ccccc1; NMeV = CN[C@H](C(=O)O)C(C)C
# output must be one of active, inactive

Test call for this compound, please: COc1cc(Nc2ccnc(NCCNc3ccnc4cc(Cl)ccc34)n2)cc(OC)c1
inactive

And COc1cccc(C2=C(c3cn(C)c4ccc(Cl)cc34)C(=O)NC2=O)c1 ?
inactive

Item: CC[C@H](C)[C@@H]([C@@H](CC(=O)N1CCC[C@H]1[C@H](OC)[C@@H](C)C(=O)N[C@H](C)[C@@H](O)c1ccccc1)OC)N(C)C(=O)[C@@H](NC(=O)[C@@H](NC)C(C)C)C(C)C (H-[NMeV]V[Dil][Dolaproine]-X2)
active

Another compound: NC(N)=NN=C(c1ccccc1)c1ccccc1
inactive

Another compound to check: COc1ccc(-c2cn[nH]c2-c2cc(OC)c(OC)c(OC)c2)cc1OCc1ccccc1
inactive

And what about the compound c1cc[n+](C2c3ccccc3C([n+]3ccccc3)c3ccccc32)cc1 (stereo not drawn) ?
inactive

Same lookup for CCCC[C@H](NC(=O)[C@H]1CCCCN1C)C(=O)N(C)[C@H](C[C@@H](OC(C)=O)c1nc(C(=O)N[C@@H](Cc2ccccc2)C[C@H](C)C(=O)OCC)cs1)C(C)C , please.
active

What do you get for CCOc1cc(F)c([N+](=O)[O-])cc1[N+](=O)[O-] ?
inactive
